- method-notes: acute toxicity, mouse
- recorded-conditions: in vivo, po, P.O., 7 day
property-measured: LD50 at 168 h (mg/kg)
Please state the figure in mg/kg; there is no need to write the unit.

stdin: # input compound: C[C@H]1[C@H]2Cc3ccccc3[C@]1(C)CCN2CC1CC1 (relative stereo) [Example 1A] ; wanted: its LD50 at 168 h
stdout: 155
